- Tested on: Puccinia recondita f. sp. tritici
- Protocol description: Test C: test suspension sprayed on wheat seedlings, inoculated next day with Puccinia recondita f. sp. tritici (wheat leaf rust), visual disease rating
- Type: in vivo
- Recorded conditions: Rate 10 ppm test suspension, relative to the controls
# label = 1.0 if Test C rating (% disease control) < 90% else 0.0

input: # TODO verify Test C rating (% disease control) < 90% strictly for this compound: COCCNC(=O)c1coc(COc2ccc(-c3noc(C(F)(F)F)n3)cc2)n1
output: 1.0

input: Entry to check: O=C(NCCC(F)(F)F)c1csc(Cc2ccc(-c3noc(C(F)(F)F)n3)cc2)n1
output: 0.0

input: Thanks! And CCNC(=O)c1csc(Cc2ccc(-c3noc(C(F)(F)F)n3)cc2)n1 ?
output: 0.0

input: Now consider Nc1ncnc2c1cnn2Cc1ccc(-c2noc(C(F)(F)F)n2)cc1 and answer again.
output: 0.0

input: Next compound up: C=CCON=Cc1cnn(Cc2ccc(-c3noc(C(F)(F)F)n3)cc2)c1
output: 0.0

input: Another: O=C(Nc1ccccc1)c1cnn(Cc2ccc(-c3noc(C(F)(F)F)n3)cc2)c1
output: 0.0

input: Similarly, CCOC(=O)Nc1cnn(Cc2ccc(-c3noc(C(F)(F)F)n3)cc2)c1 ?
output: 1.0

input: Further, for CCCON=Cc1cnn(Cc2ccc(-c3noc(C(F)(F)F)n3)cc2)c1 ?
output: 0.0

input: Follow-up entry: O=[N+]([O-])c1cnn(Cc2ccc(-c3noc(C(F)(F)F)n3)cc2)c1
output: 0.0

input: And then CCOC(=O)COC(=O)c1cnn(Cc2ccc(-c3noc(C(F)(F)F)n3)cc2)c1 , what is it?
output: 1.0

input: What do we get for FC(F)(F)c1nc(-c2ccc(Cc3ccccc3)cc2)no1 ?
output: 1.0

input: How about CCCCCOC(=O)c1cnn(Cc2ccc(-c3noc(C(F)(F)F)n3)cc2)c1 ?
output: 0.0

input: Repeat for the following compound: CCOC(=O)c1cncn(Cc2ccc(-c3noc(C(F)(F)F)n3)cc2)c1=O
output: 0.0

input: Please do the same for CS(=O)(=O)Nc1cnn(Cc2ccc(-c3noc(C(F)(F)F)n3)cc2)c1 as well.
output: 1.0

input: Next up: CCOC(=O)c1cnn(CCCc2ccc(-c3noc(C(F)(F)F)n3)cc2)c1
output: 1.0

###

- System: Puccinia recondita f. sp. tritici
- Protocol description: Test C: test suspension sprayed on wheat seedlings, inoculated next day with Puccinia recondita f. sp. tritici (wheat leaf rust), visual disease rating
- Type: in vivo
- Recorded conditions: 10 ppm test suspension
Measured parameter: Test C disease control rating (%)
Supply the numeric figure in %, leaving out any unit text.

input: Quick one: Test C disease control rating of O=C(NCCn1cccn1)c1coc(Cc2ccc(-c3noc(C(F)(F)F)n3)cc2)n1 [compound 264] ?
output: 99

input: And COCCNC(=O)c1cc(C)n(Cc2ccc(-c3noc(C(F)(F)F)n3)cc2)n1 [compound 183] ?
output: 100

input: Now consider O=C(NCCCl)c1coc(Cc2ccc(-c3noc(C(F)(F)F)n3)cc2)n1 [compound 204] and answer again.
output: 100

input: Note, next up: COC(=O)c1cnn(Cc2ccc(-c3noc(C(F)(F)F)n3)s2)c1 [compound 188]
output: 100

input: Could you do the same for CCOC(=O)c1cnn(C(C)c2ccc(-c3noc(C(F)(F)F)n3)s2)c1 (racemic) [Compound 192] , please?
output: 100
